Test system: SK-Mel-2 human melanoma cells
Experiment: Cytotoxicity, resazurin metabolism assay, SK-Mel-2
Format: cell-based
Settings: mean ± SD
pIC50: −log10 of the molar value.
Listing of recorded pIC50 by entry.
value.type: pIC50

compound: C=C(C)C1CCC2(CO)CCC3(C)C(CCC4C5(C)CCC(OC6OCC(O)C(O)C6O)C(C)(C)C5CCC43C)C12 [Compound 14, 3-O-α-D-Arabinopyranoside of Betulin]
quantitative.readout: 4.27

compound: C=C(C)[C@@H]1CC[C@]2(C(=O)O)CC[C@]3(C)[C@H](CC[C@@H]4[C@@]5(C)CC[C@H](O[C@@H]6OC[C@@H](O)[C@H](O)[C@H]6O)C(C)(C)[C@@H]5CC[C@]43C)[C@@H]12 [Compound 30, 3-O-β-D-Xylopyranoside of betulinic acid]
quantitative.readout: 4.44

compound: C=C(C)[C@@H]1CC[C@]2(C)CC[C@]3(C)[C@H](CC[C@@H]4[C@@]5(C)CC[C@H](O[C@@H]6O[C@H](CO)[C@@H](O)[C@H](O)[C@H]6O)C(C)(C)[C@@H]5CC[C@]43C)[C@@H]12 [Compound 9, 3-O-6-D-Glucopyranoside of lupeol]
quantitative.readout: 4.81

compound: CC1(C)CC[C@]23CC[C@]4(C)[C@H](CC[C@@H]5[C@@]6(C)CC[C@H](O[C@@H]7O[C@H](CO)[C@H](O)[C@H](O)[C@H]7O)C(C)(C)[C@@H]6CC[C@]54C)[C@H]2[C@H]1OC3 [Compound 36, 3-O-β-D-Galactopyranoside of Allobetulin]
quantitative.readout: 4.40

Origin of values: patent US20100331269A1
